B1: ZNF263 (parent)
chain: LLRHQRIHTGERPYKCPECGKSFS

- Variants of: B1
- test.summary: protein stability index of a GFP-peptide fusion (GPS, HEK-293T) (PSI 1-6); higher = more stable;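 also: lentivirally expressed fusions sorted by FACS into six bins by GFP to DsRed ratio, PSI derived from sequencing read proportions per bin multiplied by bin number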
- experimental.parameters: c terminus: a fixed tail appended

[
  {
    "sequence.code": "LLRHQTIHTGERPYKCPECGKSFS [R6T]",
    "protein stability index": 2.85
  },
  {
    "sequence.code": "LLRHQRIHTGERPYKCSECGKSFS [P17S]",
    "protein stability index": 1.66
  },
  {
    "sequence.code": "LLRHQRIHTGERPYKCPECGKSVS [F23V]",
    "protein stability index": 2.53
  },
  {
    "sequence.code": "LNRHQRIHTGERPYKCPECGKSFS [L2N]",
    "protein stability index": 3.27
  },
  {
    "sequence.code": "LLHHQRIHTGERPYKCPECGKSFS [R3H]",
    "protein stability index": 2.56
  },
  {
    "sequence.code": "LLRHQRIHTGGRPYKCPECGKSFS [E11G]",
    "protein stability index": 2.63
  },
  {
    "sequence.code": "LLRHQRIHTGERPYKCPECGKSFP [S24P]",
    "protein stability index": 2.24
  },
  {
    "sequence.code": "LLRHQRIHTGERPYKCPECVKSFS [G20V]",
    "protein stability index": 2.42
  },
  {
    "sequence.code": "LLRHQRIHFGERPYKCPECGKSFS [T9F]",
    "protein stability index": 2.06
  },
  {
    "sequence.code": "LHRHQRIHTGERPYKCPECGKSFS [L2H]",
    "protein stability index": 3.11
  },
  {
    "sequence.code": "LLRHQRIHTGERPMKCPECGKSFS [Y14M]",
    "protein stability index": 2.42
  }
]

Origin of measurements: the supplement of paper PMC10567573
